# key: entry, value: inhibition at 1 µM
experimental system: panel of 255 wild-type kinases (Homo sapiens, UniProt P22612)
Sequence (P22612 whole entry): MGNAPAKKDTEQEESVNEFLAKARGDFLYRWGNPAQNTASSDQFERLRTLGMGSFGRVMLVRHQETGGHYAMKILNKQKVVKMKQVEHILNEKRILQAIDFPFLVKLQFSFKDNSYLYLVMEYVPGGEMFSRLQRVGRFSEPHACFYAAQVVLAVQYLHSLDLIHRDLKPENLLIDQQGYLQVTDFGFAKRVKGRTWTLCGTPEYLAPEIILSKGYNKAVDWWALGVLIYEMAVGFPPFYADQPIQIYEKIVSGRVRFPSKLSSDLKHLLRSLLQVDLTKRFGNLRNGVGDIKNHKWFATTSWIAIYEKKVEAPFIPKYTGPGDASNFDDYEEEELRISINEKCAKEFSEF
assay overview: Kinase panel profiling at 1 µmol/L (MSA or IMAP), percentage inhibition
Type: biochemical
experimental setup: kinase PKACγ; 1 µmol/L single concentration; read-out: %-inhibition at 1 µmol/L, PKACγ
measurement type: inhibition at 1 µM (%)

entry smiles	measured
C[C@H]1Oc2cc(cnc2N)-c2c(nn(C)c2C#N)CN(C)C(=O)c2ccc(F)cc21	-6
O=C(Nc1cnn2ccc(N3CCC[C@@H]3c3cc(F)ccc3F)nc12)N1CC[C@H](O)C1	-4
C=CC(=O)N1CCC([C@@H]2CCNc3c(C(N)=O)c(-c4ccc(Oc5ccccc5)cc4)nn32)CC1	-4.62
CCc1nc(C(N)=O)c(Nc2ccc(N3CCC(N4CCN(C)CC4)CC3)c(OC)c2)nc1NC1CCOCC1	5.41
COc1ccc(CN2C3CC2CN(c2ccc(-c4cc(OCC(C)(C)O)cn5ncc(C#N)c45)cn2)C3)cn1	-2.63
CN1CCN(c2ccc(C(=O)Nc3n[nH]c4ccc(Cc5cc(F)cc(F)c5)cc34)c(NC3CCOCC3)c2)CC1	-4.58
FC(F)(F)c1ccc(CNc2ccc(Cc3c[nH]c4ncc(Cl)cc34)cn2)cn1	3
CCN1CCN(c2ccc(Nc3cc(N(C)C(=O)Nc4c(Cl)c(OC)cc(OC)c4Cl)ncn3)cc2)CC1	-0.0435
C[C@H](Nc1ncnc2nc[nH]c12)c1cc2cccc(Cl)c2c(=O)n1-c1ccccc1	-4
CCn1c(=O)c(-c2cc(NC(=O)Nc3ccccc3)c(F)cc2Br)cc2cnc(NC)cc21	2.69
Cn1cnc2c(F)c(Nc3ccc(Br)cc3F)c(C(=O)NOCCO)cc21	-3
CO[C@]1(C(=O)N[C@@H](C)c2ccc(-n3cc(F)cn3)nc2)CC[C@H](c2nc(C)cc(Nc3cc(C)[nH]n3)n2)CC1	10
COc1cc2ncnc(Nc3ccc(F)c(Cl)c3)c2cc1NC(=O)/C=C/CN1CCCCC1	12
Cn1cc(-c2cc3c(N4CCN(c5ncc([C@@](C)(N)c6ccc(F)cc6)cn5)CC4)ncnn3c2)cn1	4.43
Cn1cnc2c(F)c(Nc3ccc(Br)cc3Cl)c(C(=O)NOCCO)cc21	-4
